System: S. epidermidis 438
Assay Protocol: MIC, hospital methicillin-resistant strains (MRSE)
Run Parameters: hospital MRSE strain S. epidermidis 438
Assay Metric: MIC
Answer with the number, then the unit.

Kindly give each listed record's MIC.
1. CC(NC(=S)[N-]c1cccc(C(F)(F)F)c1)c1ccccc1.CC(NC(=S)[N-]c1cccc(C(F)(F)F)c1)c1ccccc1.[Cu+2] (racemic)
2. FC(F)(F)c1cccc([N-]C(=S)NCc2ccccc2)c1.FC(F)(F)c1cccc([N-]C(=S)NCc2ccccc2)c1.[Cu+2]
3. O.O=[N+]([O-])c1cc(NC(=S)[N-]c2cccc(C(F)(F)F)c2)ccc1Cl.O=[N+]([O-])c1cc(NC(=S)[N-]c2cccc(C(F)(F)F)c2)ccc1Cl.[Cu+2]
4. FC(F)(F)c1cccc([N-]C(=S)Nc2cccc(Br)c2)c1.FC(F)(F)c1cccc([N-]C(=S)Nc2cccc(Br)c2)c1.[Cu+2]
5. FC(F)(F)c1cccc([N-]C(=S)NCCc2ccccc2)c1.FC(F)(F)c1cccc([N-]C(=S)NCCc2ccccc2)c1.O.[Cu+2]

Given back:
1: 16 µg/mL; 2: 64 µg/mL; 3: 2 µg/mL; 4: 8 µg/mL; 5: 128 µg/mL

---

Could you please report measured MIC for the items listed next?
Test system: S. aureus ATCC 29213
Assay Protocol: MIC, twofold serial microdilution, standard strains
Run Parameters: S. aureus ATCC 29213, standard strain
Record the result as number plus unit.

>  <Molecule>
FC(F)(F)c1cccc([N-]C(=S)NCCc2ccccc2)c1.FC(F)(F)c1cccc([N-]C(=S)NCCc2ccccc2)c1.O.[Cu+2] [Cu1]

>  <Experimental Value>
64 µg/mL

$$$$
>  <Molecule>
FC(F)(F)c1cccc([N-]C(=S)NCc2ccccc2)c1.FC(F)(F)c1cccc([N-]C(=S)NCc2ccccc2)c1.[Cu+2] [Cu3]

>  <Experimental Value>
64 µg/mL

$$$$
>  <Molecule>
CC(NC(=S)[N-]c1cccc(C(F)(F)F)c1)c1ccccc1.CC(NC(=S)[N-]c1cccc(C(F)(F)F)c1)c1ccccc1.[Cu+2] (racemic) [Cu2]

>  <Experimental Value>
32 µg/mL

$$$$
>  <Molecule>
FC(F)(F)c1cccc([N-]C(=S)Nc2cccc(Br)c2)c1.FC(F)(F)c1cccc([N-]C(=S)Nc2cccc(Br)c2)c1.[Cu+2] [Cu4]

>  <Experimental Value>
8 µg/mL

$$$$

Lab note: next molecule to report on.
Asked: Quote MIC reported for O.O=[N+]([O-])c1cc(NC(=S)[N-]c2cccc(C(F)(F)F)c2)ccc1Cl.O=[N+]([O-])c1cc(NC(=S)[N-]c2cccc(C(F)(F)F)c2)ccc1Cl.[Cu+2] [Cu5] please.
Given back: 4 µg/mL

---

System: S. epidermidis 471
Assay Protocol: MIC, hospital methicillin-resistant strains (MRSE)
Run Parameters: hospital MRSE strain S. epidermidis 471
Assay Metric: MIC (µg/mL)
Give bare numbers, in µg/mL.

Record excerpt, results attached:
>  <Compound>
FC(F)(F)c1cccc([N-]C(=S)NCc2ccccc2)c1.FC(F)(F)c1cccc([N-]C(=S)NCc2ccccc2)c1.[Cu+2] [Cu3]

>  <Experimental Value>
64

$$$$
>  <Compound>
FC(F)(F)c1cccc([N-]C(=S)Nc2cccc(Br)c2)c1.FC(F)(F)c1cccc([N-]C(=S)Nc2cccc(Br)c2)c1.[Cu+2] [Cu4]

>  <Experimental Value>
8

$$$$

Provide reported MIC for each item, in the same order as listed.
1. O.O=[N+]([O-])c1cc(NC(=S)[N-]c2cccc(C(F)(F)F)c2)ccc1Cl.O=[N+]([O-])c1cc(NC(=S)[N-]c2cccc(C(F)(F)F)c2)ccc1Cl.[Cu+2] [Cu5]
2. FC(F)(F)c1cccc([N-]C(=S)NCCc2ccccc2)c1.FC(F)(F)c1cccc([N-]C(=S)NCCc2ccccc2)c1.O.[Cu+2] [Cu1]
3. CC(NC(=S)[N-]c1cccc(C(F)(F)F)c1)c1ccccc1.CC(NC(=S)[N-]c1cccc(C(F)(F)F)c1)c1ccccc1.[Cu+2] (racemic) [Cu2]

Given back:
[4, 64, 16]

---

Tested on: S. aureus 568
Assay Protocol: MIC, hospital methicillin-resistant strains (MRSA)
Run Parameters: hospital MRSA strain S. aureus 568
Please go through the items and note down their MIC.
Give bare numbers, in µg/mL.

Record excerpt, results attached:
>  <Molecule>
O.O=[N+]([O-])c1cc(NC(=S)[N-]c2cccc(C(F)(F)F)c2)ccc1Cl.O=[N+]([O-])c1cc(NC(=S)[N-]c2cccc(C(F)(F)F)c2)ccc1Cl.[Cu+2] [Cu5]

>  <Assay Metric>
MIC

>  <Unit>
µg/mL

>  <Experimental Value>
2

$$$$
>  <Molecule>
FC(F)(F)c1cccc([N-]C(=S)Nc2cccc(Br)c2)c1.FC(F)(F)c1cccc([N-]C(=S)Nc2cccc(Br)c2)c1.[Cu+2] [Cu4]

>  <Assay Metric>
MIC

>  <Unit>
µg/mL

>  <Experimental Value>
8

$$$$
>  <Molecule>
FC(F)(F)c1cccc([N-]C(=S)NCc2ccccc2)c1.FC(F)(F)c1cccc([N-]C(=S)NCc2ccccc2)c1.[Cu+2] [Cu3]

>  <Assay Metric>
MIC

>  <Unit>
µg/mL

>  <Experimental Value>
64

$$$$

Need MIC for each of these molecules.
1. CC(NC(=S)[N-]c1cccc(C(F)(F)F)c1)c1ccccc1.CC(NC(=S)[N-]c1cccc(C(F)(F)F)c1)c1ccccc1.[Cu+2] (racemic) [Cu2]
2. FC(F)(F)c1cccc([N-]C(=S)NCCc2ccccc2)c1.FC(F)(F)c1cccc([N-]C(=S)NCCc2ccccc2)c1.O.[Cu+2] [Cu1]

Given back:
1: 8; 2: 64

---

Tested on: Bacillus subtilis M45 (rec−)
Run Parameters: B. subtilis M45 (rec−); 256 µg per 9 mm disc (NOQ 2 µg per disc)
Assignment: determine reported Genotoxic activity, inhibition zone diameter, M45 for the given compounds.
Numbers only, in mm.

See these solved cases before continuing.
>  <Compound>
CC(NC(=S)[N-]c1cccc(C(F)(F)F)c1)c1ccccc1.CC(NC(=S)[N-]c1cccc(C(F)(F)F)c1)c1ccccc1.[Cu+2] (racemic) [Cu2]

>  <Unit>
mm

>  <Experimental Value>
16

$$$$
>  <Compound>
FC(F)(F)c1cccc([N-]C(=S)NCCc2ccccc2)c1.FC(F)(F)c1cccc([N-]C(=S)NCCc2ccccc2)c1.O.[Cu+2] [Cu1]

>  <Unit>
mm

>  <Experimental Value>
16

$$$$
>  <Compound>
O.O=[N+]([O-])c1cc(NC(=S)[N-]c2cccc(C(F)(F)F)c2)ccc1Cl.O=[N+]([O-])c1cc(NC(=S)[N-]c2cccc(C(F)(F)F)c2)ccc1Cl.[Cu+2] [Cu5]

>  <Unit>
mm

>  <Experimental Value>
17

$$$$
>  <Compound>
FC(F)(F)c1cccc([N-]C(=S)Nc2cccc(Br)c2)c1.FC(F)(F)c1cccc([N-]C(=S)Nc2cccc(Br)c2)c1.[Cu+2] [Cu4]

>  <Unit>
mm

>  <Experimental Value>
17

$$$$

Could you now consider this next compound?
Asked: With Bacillus subtilis M45 (rec−) as the test system, provide measured Genotoxic activity, inhibition zone diameter, M45 for this compound: FC(F)(F)c1cccc([N-]C(=S)NCc2ccccc2)c1.FC(F)(F)c1cccc([N-]C(=S)NCc2ccccc2)c1.[Cu+2] [Cu3]
Given back: 15

---

Test system: S. epidermidis 420
Assay Protocol: MIC, hospital methicillin-resistant strains (MRSE)
Run Parameters: hospital MRSE strain S. epidermidis 420
Assay Metric: MIC (µg/mL)
Answers are plain numbers, in µg/mL.

# count of solved cases: 2
>  <Compound>
FC(F)(F)c1cccc([N-]C(=S)Nc2cccc(Br)c2)c1.FC(F)(F)c1cccc([N-]C(=S)Nc2cccc(Br)c2)c1.[Cu+2]

>  <System Tested>
S. epidermidis 420

>  <MIC / µg/mL>
8

$$$$
>  <Compound>
FC(F)(F)c1cccc([N-]C(=S)NCCc2ccccc2)c1.FC(F)(F)c1cccc([N-]C(=S)NCCc2ccccc2)c1.O.[Cu+2]

>  <System Tested>
S. epidermidis 420

>  <MIC / µg/mL>
64

$$$$

For every item in the list below, what is its measured MIC?
1. FC(F)(F)c1cccc([N-]C(=S)NCc2ccccc2)c1.FC(F)(F)c1cccc([N-]C(=S)NCc2ccccc2)c1.[Cu+2]
2. CC(NC(=S)[N-]c1cccc(C(F)(F)F)c1)c1ccccc1.CC(NC(=S)[N-]c1cccc(C(F)(F)F)c1)c1ccccc1.[Cu+2] (racemic)
3. O.O=[N+]([O-])c1cc(NC(=S)[N-]c2cccc(C(F)(F)F)c2)ccc1Cl.O=[N+]([O-])c1cc(NC(=S)[N-]c2cccc(C(F)(F)F)c2)ccc1Cl.[Cu+2]

Given back:
1: 64; 2: 16; 3: 4

---

System: S. epidermidis 515
Assay Protocol: MIC, hospital methicillin-resistant strains (MRSE)
Run Parameters: hospital MRSE strain S. epidermidis 515
Hi there, I'd appreciate the recorded MIC for every entry that follows.

Sample records with MIC:
>  <Molecule>
O.O=[N+]([O-])c1cc(NC(=S)[N-]c2cccc(C(F)(F)F)c2)ccc1Cl.O=[N+]([O-])c1cc(NC(=S)[N-]c2cccc(C(F)(F)F)c2)ccc1Cl.[Cu+2] [Cu5]

>  <System Tested>
S. epidermidis 515

>  <MIC>
4 µg/mL

$$$$
>  <Molecule>
FC(F)(F)c1cccc([N-]C(=S)Nc2cccc(Br)c2)c1.FC(F)(F)c1cccc([N-]C(=S)Nc2cccc(Br)c2)c1.[Cu+2] [Cu4]

>  <System Tested>
S. epidermidis 515

>  <MIC>
8 µg/mL

$$$$
>  <Molecule>
FC(F)(F)c1cccc([N-]C(=S)NCc2ccccc2)c1.FC(F)(F)c1cccc([N-]C(=S)NCc2ccccc2)c1.[Cu+2] [Cu3]

>  <System Tested>
S. epidermidis 515

>  <MIC>
64 µg/mL

$$$$
>  <Molecule>
CC(NC(=S)[N-]c1cccc(C(F)(F)F)c1)c1ccccc1.CC(NC(=S)[N-]c1cccc(C(F)(F)F)c1)c1ccccc1.[Cu+2] (racemic) [Cu2]

>  <System Tested>
S. epidermidis 515

>  <MIC>
16 µg/mL

$$$$

Asked: State MIC (S. epidermidis 515) of FC(F)(F)c1cccc([N-]C(=S)NCCc2ccccc2)c1.FC(F)(F)c1cccc([N-]C(=S)NCCc2ccccc2)c1.O.[Cu+2] [Cu1] .
Given back: 128 µg/mL
